Tested on: PC-12
protocol_description: Neuroprotective activity against CoCl2-induced neuronal injury in rat PC-12 cells assessed as cell viability at 30 uM relative to control
Type: functional
test_settings: read-out: Activity
Recorded viability at 30 µM, one value per entry.

{"columns": ["molecule", "target_of_assay", "viability at 30 µM [%]"],
 "data": [
  ["CC(=O)[C@@H]1CC[C@]2(C(=O)O)C[C@H](O)[C@]3(C)[C@H](CC[C@@H]4[C@@]5(C)CC[C@H](O)C(C)(C)[C@@H]5C[C@H](O)[C@]43C)[C@@H]12", "PC-12", 99.4],
  ["CC(=O)[C@@H]1CC[C@]2(C(=O)O)CC[C@]3(C)[C@H](CC[C@@H]4[C@@]5(C)CC[C@H](O)C(C)(C)[C@@H]5CC[C@]43C)[C@@H]12", "PC-12", 96.8],
  ["CC(=O)[C@@H]1CC[C@]2(C(=O)O)C[C@H](O)[C@]3(C)[C@H](CC[C@@H]4[C@@]5(C)CCC(=O)C(C)(C)[C@@H]5C[C@H](O)[C@]43C)[C@@H]12", "PC-12", 104],
  ["CC(=O)[C@@H]1CC[C@]2(C(=O)O)CC[C@]3(C)[C@H](CC[C@@H]4[C@@]5(C)CCC(=O)C(C)(C)[C@@H]5C[C@H](O)[C@]43C)[C@@H]12", "PC-12", 96],
  ["OC[C@H]1O[C@@H](OCCc2ccc(O)cc2)[C@H](O)[C@@H](O)[C@@H]1O [SALIDROSIDE]", "PC-12", 99.2],
  ["CC(=O)[C@@H]1CC[C@]2(C(=O)O)CC[C@]3(C)[C@H](CC[C@@H]4[C@@]5(C)CC[C@H](O)C(C)(C)[C@@H]5C[C@H](O)[C@]43C)[C@@H]12", "PC-12", 105],
  ["CC(=O)[C@@H]1CC[C@]2(C(=O)O)CC[C@]3(C)[C@H](C[C@@H](O)[C@@H]4[C@@]5(C)CCC(=O)C(C)(C)[C@@H]5CC[C@]43C)[C@@H]12", "PC-12", 102],
  ["CC(=O)[C@@H]1CC[C@]2(C(=O)O)CC[C@]3(C)[C@H](C[C@@H](O)[C@@H]4[C@@]5(C)CCC(=O)C(C)(C)[C@@H]5C[C@H](O)[C@]43C)[C@@H]12", "PC-12", 105],
  ["CC(=O)[C@@H]1CC[C@]2(C(=O)O)CC[C@]3(C)[C@H](CC[C@@H]4[C@@]5(C)CC[C@H](O)[C@@](C)(CO)[C@@H]5C[C@H](O)[C@]43C)[C@@H]12", "PC-12", 110]
]}
